From: patent US20070128190A1

Target or test system: T1, human platelet α2β1 integrin (immobilized on microtiter plates) (human, UniProt P17301 30-1181; P05556 21-798)
T1 construct: plates custom-coated with human platelet α2β1 by GTI Inc; also called immobilized α2β1 integrin; α2β1-coated plates
T1 sequence (P17301 30-1181 E534K limits assumed, chain 1 of 2): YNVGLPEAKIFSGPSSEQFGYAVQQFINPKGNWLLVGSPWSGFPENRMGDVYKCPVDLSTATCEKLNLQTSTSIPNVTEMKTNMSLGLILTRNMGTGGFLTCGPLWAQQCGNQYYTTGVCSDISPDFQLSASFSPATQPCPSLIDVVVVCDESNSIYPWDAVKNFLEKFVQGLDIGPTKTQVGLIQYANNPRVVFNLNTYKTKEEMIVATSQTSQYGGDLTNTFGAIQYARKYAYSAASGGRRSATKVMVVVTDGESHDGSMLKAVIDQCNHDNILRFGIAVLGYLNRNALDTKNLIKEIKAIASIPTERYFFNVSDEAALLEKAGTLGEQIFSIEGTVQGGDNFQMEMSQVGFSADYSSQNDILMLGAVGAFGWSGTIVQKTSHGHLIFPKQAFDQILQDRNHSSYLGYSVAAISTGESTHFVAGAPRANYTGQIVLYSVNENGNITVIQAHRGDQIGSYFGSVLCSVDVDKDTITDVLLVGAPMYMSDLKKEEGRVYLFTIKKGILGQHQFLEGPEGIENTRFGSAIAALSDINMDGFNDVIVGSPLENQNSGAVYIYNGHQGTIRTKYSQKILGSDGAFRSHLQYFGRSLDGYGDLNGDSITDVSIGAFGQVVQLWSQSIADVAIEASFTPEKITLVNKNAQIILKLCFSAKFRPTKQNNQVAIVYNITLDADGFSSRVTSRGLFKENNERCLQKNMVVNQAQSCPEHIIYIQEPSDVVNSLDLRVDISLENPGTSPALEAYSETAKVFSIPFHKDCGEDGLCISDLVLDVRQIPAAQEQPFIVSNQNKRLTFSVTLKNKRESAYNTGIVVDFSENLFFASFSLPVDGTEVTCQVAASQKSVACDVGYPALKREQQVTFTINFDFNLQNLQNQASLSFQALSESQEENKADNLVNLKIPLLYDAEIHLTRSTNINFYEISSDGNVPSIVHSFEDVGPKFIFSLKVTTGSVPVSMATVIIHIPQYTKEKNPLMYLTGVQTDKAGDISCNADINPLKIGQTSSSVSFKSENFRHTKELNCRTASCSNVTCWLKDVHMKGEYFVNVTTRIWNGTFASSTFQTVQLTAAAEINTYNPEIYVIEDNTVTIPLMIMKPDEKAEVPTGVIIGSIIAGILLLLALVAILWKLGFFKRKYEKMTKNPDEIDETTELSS
T1 sequence (P05556 21-798 limits assumed, chain 2 of 2): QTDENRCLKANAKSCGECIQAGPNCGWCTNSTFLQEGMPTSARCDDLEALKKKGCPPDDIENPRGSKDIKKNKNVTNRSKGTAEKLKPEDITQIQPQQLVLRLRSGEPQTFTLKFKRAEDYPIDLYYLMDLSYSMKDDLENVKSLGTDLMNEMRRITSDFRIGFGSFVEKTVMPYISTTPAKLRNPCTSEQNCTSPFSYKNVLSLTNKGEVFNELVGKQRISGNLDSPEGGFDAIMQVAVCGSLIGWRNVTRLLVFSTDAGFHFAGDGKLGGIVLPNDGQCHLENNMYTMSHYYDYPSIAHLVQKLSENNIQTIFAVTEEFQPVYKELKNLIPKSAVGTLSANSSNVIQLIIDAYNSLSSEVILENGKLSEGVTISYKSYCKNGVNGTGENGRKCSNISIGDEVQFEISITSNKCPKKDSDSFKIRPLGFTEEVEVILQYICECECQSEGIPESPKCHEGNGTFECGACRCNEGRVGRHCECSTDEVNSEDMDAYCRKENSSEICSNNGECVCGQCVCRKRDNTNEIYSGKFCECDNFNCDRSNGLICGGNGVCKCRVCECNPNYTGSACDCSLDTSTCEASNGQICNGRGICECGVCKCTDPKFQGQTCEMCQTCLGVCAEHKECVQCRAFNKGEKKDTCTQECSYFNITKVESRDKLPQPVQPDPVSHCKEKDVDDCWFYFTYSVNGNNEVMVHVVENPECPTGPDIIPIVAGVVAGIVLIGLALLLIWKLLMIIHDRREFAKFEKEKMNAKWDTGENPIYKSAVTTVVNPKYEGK
Test protocol: competition with Eu-TMC-2206 on human platelet α2β1-coated plate
Decision: fold shift in potency compared to the hVH1.0, hVL1.0 variant >= 40 fold yields true (1), all other cases yield false (0).

Item humanized TMC-2206 variant hVH1.0/hVL4.0 (antibody, human IgG1, V domains shown, human IgG1/κ constant regions) VH: QVQLQESGPGLVKPSETLSLTCTVSGFSLTNYGIHWVRQPPGKGLEWLGVIWARGFTNYNSALMSRLTISKDNSKNQVSLKLSSVTAADTAVYFCARANDGVYYAMDYWGQGTLVTVSS VL: DVVMTQSPAFLSVTPGEKVTITCSANSSVNYIHWYQQKPDQAPKKWIYDTSKLASGVPSRFSGSGSGTDYTFTISSLEAEDAATYYCQQWTTNPLTFGQGTKVEIK with fold shift in potency compared to the hVH1.0, hVL1.0 variant of 40 fold or above?
false (0)

Tell me whether fold shift in potency compared to the hVH1.0, hVL1.0 variant is at least 40 fold here: humanized TMC-2206 variant hVH3.0/hVL1.0 (antibody, human IgG1, V domains shown, human IgG1/κ constant regions) VH: QVQLQESGPGLVKPSETLSLTCTVSGFSLTNYGIHWVRQPPGKGLEWLGVIWARGFTNYNSALMSRVTISVDTSKNQFSLKLSSVTAADTAVYFCARANDGVYYAMDYWGQGTLVTVSS VL: QFVLTQSPAFLSVTPGEKVTITCSANSSVNYIHWYQQKPDQAPKKWIYDTSKLASGVPSRFSGSGSGTDYTFTISSLEAEDAATYYCQQWTTNPLTFGQGTKVEIK
false (0)

Please check the record humanized TMC-2206 variant hVH4.0/hVL4.0 (antibody, human IgG1, V domains shown, human IgG1/κ constant regions) VH: QVQLQESGPGLVKPSETLSLTCTVSGFSLTNYGIHWIRQPPGKGLEWIGVIWARGFTNYNSALMSRLTISKDNSKNQVSLKLSSVTAADTAVYFCARANDGVYYAMDYWGQGTLVTVSS VL: DVVMTQSPAFLSVTPGEKVTITCSANSSVNYIHWYQQKPDQAPKKWIYDTSKLASGVPSRFSGSGSGTDYTFTISSLEAEDAATYYCQQWTTNPLTFGQGTKVEIK and state if its fold shift in potency compared to the hVH1.0, hVL1.0 variant is at or above 40 fold.
false (0)

Decide: is the reported value of fold shift in potency compared to the hVH1.0, hVL1.0 variant for humanized TMC-2206 variant hVH1.0/hVL3.0 (antibody, human IgG1, V domains shown, human IgG1/κ constant regions; also called VH1.0/VL3.0) VH: QVQLQESGPGLVKPSETLSLTCTVSGFSLTNYGIHWVRQPPGKGLEWLGVIWARGFTNYNSALMSRLTISKDNSKNQVSLKLSSVTAADTAVYFCARANDGVYYAMDYWGQGTLVTVSS VL: QFVLTQSPAFLSVTPGEKVTITCSANSSVNYIHWYQQKPDQAPKLLIYDTSKLASGVPSRFSGSGSGTDYTFTISSLEAEDAATYYCQQWTTNPLTFGQGTKVEIK equal to or greater than 40 fold?
false (0)

Reported fold shift in potency compared to the hVH1.0, hVL1.0 variant at or above 40 fold? humanized TMC-2206 variant hVH3.0/hVL4.0 (antibody, human IgG1, V domains shown, human IgG1/κ constant regions) VH: QVQLQESGPGLVKPSETLSLTCTVSGFSLTNYGIHWVRQPPGKGLEWLGVIWARGFTNYNSALMSRVTISVDTSKNQFSLKLSSVTAADTAVYFCARANDGVYYAMDYWGQGTLVTVSS VL: DVVMTQSPAFLSVTPGEKVTITCSANSSVNYIHWYQQKPDQAPKKWIYDTSKLASGVPSRFSGSGSGTDYTFTISSLEAEDAATYYCQQWTTNPLTFGQGTKVEIK
true (1)
